Let's look at some molecules and their measured Residual Enzyme Activity.
- Assay Procedure: Stability assay: residual activity after incubation with 1 mM inhibitor, measured by pNA assay
- Format: physicochemical
- Set-up: key: fraction of activity at 0 h incubation (0.80 = 80%)
- Experimental Parameters: incubation time 44.0 hours; 1 mM Cu2+; 25° C., pH 7, 0.1% K-sorbate; relative to 0 hours
Output spec: single numeric token, no unit.

Molecule	Meas Value
Protease 11: protease from Nocardiopsis prasina DSM 15648, amino acids 1-188 of SEQ ID NO: 6 (protein, listed as Nocardiopsis prasina) ATGPLPQSPTPEADAVSMQEALQRDLGLTPLEADELLAAQDTAFEVDEAAAAAAGDAYGGSVFDTETLELTVLVTDAASVEAVEATGAGTELVSYGIEGLDEIIQDLNAADAVPGVVGWYPDVAGDTVVLEVLEGSGADVSGLLADAGVDASAVEVTSSAQPELYADIIGGLAYTMGGRCSVGFAATN	0.930

// next entry
Find the recorded Residual Enzyme Activity belonging to Protease 08: protease from Nocardiopsis alba DSM 15647, amino acids 1-188 of SEQ ID NO: 10 (protein, listed as Nocardiopsis alba) ATGPLPQSPTPDEAEATTMVEALQRDLGLSPSQADELLEAQAESFEIDEAATAAAADSYGGSIFDTDSLTLTVLVTDASAVEAVEAAGAEAKVVSHGMEGLEEIVADLNAADAQPGVVGWYPDIHSDTVVLEVLEGSGADVDSLLADAGVDTADVKVESTTEQPELYADIIGGLAYTMGGRCSVGFAA and report it.
0.842
